- System tested: Fructose-1,6-bisphosphatase 1 (Homo sapiens)
- Sequence (P09467 whole entry): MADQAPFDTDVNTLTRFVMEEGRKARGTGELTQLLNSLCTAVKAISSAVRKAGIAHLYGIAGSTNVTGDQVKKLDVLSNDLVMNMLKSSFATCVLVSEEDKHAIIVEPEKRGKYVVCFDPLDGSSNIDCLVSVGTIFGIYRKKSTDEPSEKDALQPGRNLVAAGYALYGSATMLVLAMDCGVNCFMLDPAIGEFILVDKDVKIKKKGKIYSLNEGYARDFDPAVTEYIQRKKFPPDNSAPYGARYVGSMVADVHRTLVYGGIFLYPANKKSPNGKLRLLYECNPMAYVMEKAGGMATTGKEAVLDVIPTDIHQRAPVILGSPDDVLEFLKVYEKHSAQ
- Experiment summary: Inhibition of FBPase in human liver in presence of fructose-2,6-bisphosphate, a substrate site inhibitor
Catalogue of IC50 values
// units = nM; emit number, no label

Some entries whose results are on file:
COCc1sc(S(=O)(=O)NC(=O)Nc2ncc(Br)s2)cc1C 120
O=C(Nc1ncc(Br)s1)NS(=O)(=O)c1cccc(OC(F)F)c1 100
Cc1ccc2sc(S(=O)(=O)NC(=O)Nc3ncc(Br)s3)cc2c1 50
Cc1cc(S(=O)(=O)NC(=O)Nc2ncc(Br)s2)ccc1-c1ccc(F)nc1 90
COc1sc(S(=O)(=O)NC(=O)Nc2ncc(Br)s2)cc1C 70
O=C(Nc1ncc(Br)s1)NS(=O)(=O)c1cccc(OC(F)(F)F)c1 380

Moving on to another compound below.
Provide value of IC50 for this record tested with Fructose-1,6-bisphosphatase 1 (Homo sapiens): COc1ccc(-c2sc(S(=O)(=O)NC(=O)Nc3ncc(Br)s3)cc2C)c(C)c1
40
